Tested system: GKRP (Glucokinase Regulatory Protein) with human His-hepatic GK (Homo sapiens, UniProt Q14397)
Sequence (Q14397 1-625): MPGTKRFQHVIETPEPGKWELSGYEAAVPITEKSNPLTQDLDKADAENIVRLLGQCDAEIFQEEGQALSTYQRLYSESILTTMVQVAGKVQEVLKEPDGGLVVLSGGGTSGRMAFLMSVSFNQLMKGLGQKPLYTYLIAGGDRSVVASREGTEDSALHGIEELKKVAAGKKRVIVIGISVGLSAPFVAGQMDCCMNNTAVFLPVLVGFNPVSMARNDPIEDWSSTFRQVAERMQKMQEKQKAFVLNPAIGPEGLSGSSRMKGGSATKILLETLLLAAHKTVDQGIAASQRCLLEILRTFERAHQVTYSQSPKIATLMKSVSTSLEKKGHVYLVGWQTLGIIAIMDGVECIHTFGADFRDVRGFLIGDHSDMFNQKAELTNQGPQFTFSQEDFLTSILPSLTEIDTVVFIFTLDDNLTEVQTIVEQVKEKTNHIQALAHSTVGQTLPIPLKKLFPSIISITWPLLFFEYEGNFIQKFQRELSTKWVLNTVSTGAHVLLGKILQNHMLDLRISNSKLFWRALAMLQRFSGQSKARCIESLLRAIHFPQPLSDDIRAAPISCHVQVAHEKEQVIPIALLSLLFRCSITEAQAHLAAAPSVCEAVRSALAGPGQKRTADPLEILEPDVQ
Assay explanation: biochemical
Settings: 13C-glucose-6-phosphate formation; 280 nM GKRP (10×), 30 nM GK (5×); read-out: GK-GKRP EC50 (LC MS/MS-2)
Experimental: GKRP LC MS/MS-2 Biochemical Assay This assay is used to directly measure the formation of ^13C-glucose-6-phosphate from ^13C-glucose by LC MS/MS. Begin by preparing the following solutions: Compound Buffer (CB): 50 mM Tris, pH 7.5/4 mM MgCl2/6% DMSO/fresh 10 mM DTT from 1M frozen stock. Enzyme Buffer (EB): 50 mM Tris, pH 7.5/4 mM MgCl2/6% DMSO/fresh 0.1% BSA/fresh 0.01% Brij-35 (10% BSA and 1% Brij-35 stock). GK (Glucokinase) Working Stock (5×): Dilute human His-hepatic GK to 30 nM in EB buffer. […]
Property name: EC50 (nM)
Give bare numbers, in nM.

Some compounds with known EC50 results, for comparison:
| Compound | Unit descriptor | EC50 |
| --- | --- | --- |
| CC(O)(c1ccc(N2CCN(S(=O)(=O)c3cccs3)C[C@@H]2CN2CCOCC2c2ccc(F)cc2)cc1)C(F)(F)F (single isomer, unassigned) [Example 115 Peak #1] | nM | 308 |
| CC(=O)N(C[C@H]1CN(S(=O)(=O)c2cccs2)CCN1c1ccc(C(C)(O)C(F)(F)F)cc1)c1ccccc1 (mixture of isomers) [Example 224] | nM | 27 |

Switching to the query record.
Prompt: Identify measured EC50 associated with CCC(C#Cc1cc(C(O)(C(F)(F)F)C(F)(F)F)ccc1N1CCN(S(=O)(=O)c2cccs2)CC1)OC (racemic) [Example 155]
Response: 112
